System: PDE4 (U937)
assay.method.text: PDE4 enzyme inhibition, IMAP fluorescence polarization assay
Format: biochemical, human
Procedure: PDE4 is partially purified from undifferentiated human monocytic cells (U937) according to Thorpy et al. 1992 (J. Pharmacol. Exp. Ther. 263: 1195). […] PDEs specifically hydrolyze cAMP and/or cGMP and release the product AMP and/or GMP. The potency of PDE inhibition by test compounds is determined with a commercially available in vitro enzymatic assay (IMAP® Fluorescence Polarization assay, Molecular Devices Corp.). […]
endpoint.name: PDE4-inhibiting activity (in words)

# molecule, endpoint.result
rows = [
    ("CC[C@H]1OC(=O)[C@H](C)[C@@H](O)[C@H](C)[C@@H](O[C@@H]2O[C@H](C)C[C@H](N(C)C(=O)N3CCOCC3)[C@H]2O)[C@](C)(OC)C[C@@H](C)C(=O)[C@H](C)[C@H]2C(SCCN(Cc3c(Cl)cncc3Cl)c3ccc(OC)c(OC4CCCC4)c3)C(=O)O[C@@]21C (stereo in doubt)", "excellent"),
    ("CC[C@H]1OC(=O)[C@H](C)[C@@H](O[C@H]2C[C@@](C)(OC)[C@@H](O)[C@H](C)O2)[C@H](C)[C@@H](O[C@@H]2O[C@H](C)C[C@H](N(C)C(C)=O)[C@H]2O)[C@](C)(OC)C[C@@H](C)C(=O)[C@H](C)[C@H]2[C@H](SCCN(Cc3c(Cl)cncc3Cl)c3ccc(OC)c(OC4CCCC4)c3)C(=O)O[C@@]21C", "excellent"),
    ("CC[C@H]1OC(=O)[C@H](C)[C@@H](O[C@H]2C[C@@](C)(OC)[C@@H](O)[C@H](C)O2)[C@H](C)[C@@H](O[C@@H]2O[C@H](C)C[C@H](N(C)C(=O)N3CCOCC3)[C@H]2O)[C@](C)(OC)C[C@@H](C)C(=O)[C@H](C)[C@H]2[C@H](SCCOc3cc(C(=O)Nc4c(Cl)cncc4Cl)ccc3OC)C(=O)O[C@@]21C", "excellent"),
]

* * *

Attribute: Blocking of hERG @ 10 μM (% remaining tail current)
study.system: hERG channel (Homo sapiens (Human), UniProt Q12809)
Sequence (Q12809 whole entry): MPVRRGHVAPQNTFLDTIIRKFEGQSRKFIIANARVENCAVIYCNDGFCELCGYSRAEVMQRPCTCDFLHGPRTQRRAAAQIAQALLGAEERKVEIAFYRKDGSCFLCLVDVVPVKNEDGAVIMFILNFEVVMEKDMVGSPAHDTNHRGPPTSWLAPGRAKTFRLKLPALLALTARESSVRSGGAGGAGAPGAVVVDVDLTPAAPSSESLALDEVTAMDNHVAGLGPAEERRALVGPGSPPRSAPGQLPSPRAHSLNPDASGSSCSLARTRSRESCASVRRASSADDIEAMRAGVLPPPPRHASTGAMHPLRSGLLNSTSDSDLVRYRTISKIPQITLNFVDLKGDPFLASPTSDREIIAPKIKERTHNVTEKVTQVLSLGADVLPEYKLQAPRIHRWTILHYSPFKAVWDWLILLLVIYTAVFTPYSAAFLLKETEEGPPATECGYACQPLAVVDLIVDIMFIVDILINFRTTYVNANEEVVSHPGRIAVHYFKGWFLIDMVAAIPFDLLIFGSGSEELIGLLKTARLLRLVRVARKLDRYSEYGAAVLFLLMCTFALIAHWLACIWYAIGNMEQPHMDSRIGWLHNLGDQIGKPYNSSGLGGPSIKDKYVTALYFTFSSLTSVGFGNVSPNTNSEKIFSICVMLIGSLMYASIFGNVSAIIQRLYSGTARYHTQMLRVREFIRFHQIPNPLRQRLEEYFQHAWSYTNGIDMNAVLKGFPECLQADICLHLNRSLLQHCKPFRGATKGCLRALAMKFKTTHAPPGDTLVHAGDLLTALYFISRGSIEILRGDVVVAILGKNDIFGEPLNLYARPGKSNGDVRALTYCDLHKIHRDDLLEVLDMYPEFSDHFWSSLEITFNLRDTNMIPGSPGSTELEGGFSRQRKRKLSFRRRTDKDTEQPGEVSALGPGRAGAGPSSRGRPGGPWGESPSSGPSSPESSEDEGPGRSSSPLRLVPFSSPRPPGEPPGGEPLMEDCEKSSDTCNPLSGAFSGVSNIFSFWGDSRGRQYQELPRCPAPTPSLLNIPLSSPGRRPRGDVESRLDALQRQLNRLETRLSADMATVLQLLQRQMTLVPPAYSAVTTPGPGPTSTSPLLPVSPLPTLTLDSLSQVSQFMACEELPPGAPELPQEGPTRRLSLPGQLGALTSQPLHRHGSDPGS
assay.method.text: Blocking of hERG channel, whole-cell patch clamp in stably transfected HEK 293 cells
Type: cell-based
condition.set: 10 μM; HEK 293 cells
Please respond with the number in % and leave the unit unwritten.

Recorded Blocking of hERG @ 10 μM (% remaining tail current), per entry:
# compound, measure.unit, endpoint.result
measured = [
    ("CC[C@H]1OC(=O)[C@H](C)[C@@H](O[C@H]2C[C@@](C)(OC)[C@@H](O)[C@H](C)O2)[C@H](C)[C@@H](O[C@@H]2O[C@H](C)C[C@H](N(C)C(C)=O)[C@H]2O)[C@](C)(OC)C[C@@H](C)C(=O)[C@H](C)[C@H]2[C@H](SCCN(Cc3c(Cl)cncc3Cl)c3ccc(OC)c(OC4CCCC4)c3)C(=O)O[C@@]21C [Example 10 of WO2009/106419]", "%", 85.5),
    ("CC[C@H]1OC(=O)[C@H](C)[C@@H](O[C@H]2C[C@@](C)(OC)[C@@H](O)[C@H](C)O2)[C@H](C)[C@@H](O[C@@H]2O[C@H](C)C[C@H](N(C)C(=O)N3CCOCC3)[C@H]2O)[C@](C)(OC)C[C@@H](C)C(=O)[C@H](C)[C@H]2[C@H](SCCOc3cc(C(=O)Nc4c(Cl)cncc4Cl)ccc3OC)C(=O)O[C@@]21C [Example 15 WO2009/106419]", "%", 98.6),
]

Query: Data request, read-out Blocking of hERG @ 10 μM (% remaining tail current), for "CC[C@H]1OC(=O)[C@H](C)[C@@H](O)[C@H](C)[C@@H](O[C@@H]2O[C@H](C)C[C@H](N(C)C(=O)N3CCOCC3)[C@H]2O)[C@](C)(OC)C[C@@H](C)C(=O)[C@H](C)[C@H]2[C@H](SCCOc3cc(C(=O)Nc4c(Cl)cncc4Cl)ccc3OC)C(=O)O[C@@]21C"
Response: 100

* * *

assay.method.text: Oral bioavailability, pharmacokinetic study in mice
Assay type: in vivo, mouse
condition.set: in vivo; mouse; 10 mg/kg oral, 1 mg/kg intravenous; dose-normalized AUC; read-out: Oral bioavail. (mouse F %)
endpoint.name: bioavailability (%)
Please respond with the number in % and leave the unit unwritten.

# compound, endpoint.name, endpoint.result
rows = [
    ("CC[C@H]1OC(=O)[C@H](C)[C@@H](O)[C@H](C)[C@@H](O[C@@H]2O[C@H](C)C[C@H](N(C)C(=O)N3CCOCC3)[C@H]2O)[C@](C)(OC)C[C@@H](C)C(=O)[C@H](C)[C@H]2C(SCCN(Cc3c(Cl)cncc3Cl)c3ccc(OC)c(OC4CCCC4)c3)C(=O)O[C@@]21C (stereo in doubt) [compound of formula (I)]", "bioavailability", 22.8),
]

Query: Data request, read-out bioavailability, for "CC[C@H]1OC(=O)[C@H](C)[C@@H](O[C@H]2C[C@@](C)(OC)[C@@H](O)[C@H](C)O2)[C@H](C)[C@@H](O[C@@H]2O[C@H](C)C[C@H](N(C)C(=O)N3CCOCC3)[C@H]2O)[C@](C)(OC)C[C@@H](C)C(=O)[C@H](C)[C@H]2[C@H](SCCN(Cc3c(Cl)cncc3Cl)c3ccc(OC)c(OC4CCCC4)c3)C(=O)O[C@@]21C"
Response: 1.5

Query: Data request, read-out bioavailability, for "CC[C@H]1OC(=O)[C@H](C)[C@@H](O)[C@H](C)[C@@H](O[C@@H]2O[C@H](C)C[C@H](N(C)C(=O)N3CCOCC3)[C@H]2O)[C@](C)(OC)C[C@@H](C)C(=O)[C@H](C)[C@H]2[C@H](SCCOc3cc(C(=O)Nc4c(Cl)cncc4Cl)ccc3OC)C(=O)O[C@@]21C"
Response: 11.5

Query: Data request, read-out bioavailability, for CC[C@H]1OC(=O)[C@H](C)[C@@H](O)[C@H](C)[C@@H](O[C@@H]2O[C@H](C)C[C@H](N(C)C)[C@H]2OC)[C@](C)(OC)C[C@@H](C)C(=O)[C@H](C)[C@H]2[C@H](SCCN(Cc3c(Cl)cncc3Cl)c3ccc(OC)c(OC4CCCC4)c3)C(=O)O[C@@]21C [Example 9 of WO2009/106419]
Response: 9

* * *

assay.method.text: Oral bioavailability, pharmacokinetic study in mice
Assay type: in vivo, mouse

# compound, oral bioavailability (in words)
rows = [
    ("CC[C@H]1OC(=O)[C@H](C)[C@@H](O[C@H]2C[C@@](C)(OC)[C@@H](O)[C@H](C)O2)[C@H](C)[C@@H](O[C@@H]2O[C@H](C)C[C@H](N(C)C(C)=O)[C@H]2O)[C@](C)(OC)C[C@@H](C)C(=O)[C@H](C)[C@H]2[C@H](SCCN(Cc3c(Cl)cncc3Cl)c3ccc(OC)c(OC4CCCC4)c3)C(=O)O[C@@]21C", "particularly good"),
    ("CC[C@H]1OC(=O)[C@H](C)[C@@H](O)[C@H](C)[C@@H](O[C@@H]2O[C@H](C)C[C@H](N(C)C(=O)N3CCOCC3)[C@H]2O)[C@](C)(OC)C[C@@H](C)C(=O)[C@H](C)[C@H]2C(SCCN(Cc3c(Cl)cncc3Cl)c3ccc(OC)c(OC4CCCC4)c3)C(=O)O[C@@]21C (stereo in doubt)", "particularly good"),
]

* * *

study.system: hERG channel (Homo sapiens (Human), UniProt Q12809)
assay.method.text: Blocking of hERG channel, whole-cell patch clamp in stably transfected HEK 293 cells
Assay type: cell-based
condition.set: 1 μM; HEK 293 cells
endpoint.name: Blocking of hERG @ 1 μM (% remaining tail current) (%)
Please respond with the number in % and leave the unit unwritten.

# compound, study.system, measure.unit, endpoint.result
records = [
    ("CC[C@H]1OC(=O)[C@H](C)[C@@H](O)[C@H](C)[C@@H](O[C@@H]2O[C@H](C)C[C@H](N(C)C(=O)N3CCOCC3)[C@H]2O)[C@](C)(OC)C[C@@H](C)C(=O)[C@H](C)[C@H]2C(SCCN(Cc3c(Cl)cncc3Cl)c3ccc(OC)c(OC4CCCC4)c3)C(=O)O[C@@]21C (stereo in doubt) [compound of formula (I)]", "hERG channel (Homo sapiens (Human), UniProt Q12809)", "%", 99.9),
    ("CC[C@H]1OC(=O)[C@H](C)[C@@H](O[C@H]2C[C@@](C)(OC)[C@@H](O)[C@H](C)O2)[C@H](C)[C@@H](O[C@@H]2O[C@H](C)C[C@H](N(C)C(=O)N3CCOCC3)[C@H]2O)[C@](C)(OC)C[C@@H](C)C(=O)[C@H](C)[C@H]2[C@H](SCCOc3cc(C(=O)Nc4c(Cl)cncc4Cl)ccc3OC)C(=O)O[C@@]21C [Example 15 WO2009/106419]", "hERG channel (Homo sapiens (Human), UniProt Q12809)", "%", 100),
    ("CC[C@H]1OC(=O)[C@H](C)[C@@H](O[C@H]2C[C@@](C)(OC)[C@@H](O)[C@H](C)O2)[C@H](C)[C@@H](O[C@@H]2O[C@H](C)C[C@H](N(C)C(C)=O)[C@H]2O)[C@](C)(OC)C[C@@H](C)C(=O)[C@H](C)[C@H]2[C@H](SCCN(Cc3c(Cl)cncc3Cl)c3ccc(OC)c(OC4CCCC4)c3)C(=O)O[C@@]21C [Example 10 of WO2009/106419]", "hERG channel (Homo sapiens (Human), UniProt Q12809)", "%", 95.9),
    ("CC[C@H]1OC(=O)[C@H](C)[C@@H](O)[C@H](C)[C@@H](O[C@@H]2O[C@H](C)C[C@H](N(C)C)[C@H]2OC)[C@](C)(OC)C[C@@H](C)C(=O)[C@H](C)[C@H]2[C@H](SCCN(Cc3c(Cl)cncc3Cl)c3ccc(OC)c(OC4CCCC4)c3)C(=O)O[C@@]21C [Example 9 of WO2009/106419]", "hERG channel (Homo sapiens (Human), UniProt Q12809)", "%", 23.7),
    ("CC[C@H]1OC(=O)[C@H](C)[C@@H](O[C@H]2C[C@@](C)(OC)[C@@H](O)[C@H](C)O2)[C@H](C)[C@@H](O[C@@H]2O[C@H](C)C[C@H](N(C)C(=O)N3CCOCC3)[C@H]2O)[C@](C)(OC)C[C@@H](C)C(=O)[C@H](C)[C@H]2[C@H](SCCN(Cc3c(Cl)cncc3Cl)c3ccc(OC)c(OC4CCCC4)c3)C(=O)O[C@@]21C", "hERG channel (Homo sapiens (Human), UniProt Q12809)", "%", 99.2),
    ("CC[C@H]1OC(=O)[C@H](C)[C@@H](O[C@H]2C[C@@](C)(OC)[C@@H](O)[C@H](C)O2)[C@H](C)[C@@H](O[C@@H]2O[C@H](C)C[C@H](N(C)C(=O)N3CCOCC3)[C@H]2O)[C@](C)(OC)C[C@@H](C)C(=O)[C@H](C)[C@H]2N(CCCOc3cc(C(=O)Nc4c(Cl)cncc4Cl)ccc3OC)C(=O)O[C@]12C [Example 2 of WO2001/018510]", "hERG channel (Homo sapiens (Human), UniProt Q12809)", "%", 99),
]

Let's switch to this compound now.
Query: Data request, read-out Blocking of hERG @ 1 μM (% remaining tail current), for "CC[C@H]1OC(=O)[C@H](C)[C@@H](O)[C@H](C)[C@@H](O[C@@H]2O[C@H](C)C[C@H](N(C)C(=O)N3CCOCC3)[C@H]2O)[C@](C)(OC)C[C@@H](C)C(=O)[C@H](C)[C@H]2[C@H](SCCOc3cc(C(=O)Nc4c(Cl)cncc4Cl)ccc3OC)C(=O)O[C@@]21C"
Response: 99.9
